Entries and their Percent Inhibition of CXCL12 Mediated Migration (1.1 µM Test Article; Jurkat cells)
- TEST_TARGET: CXCR4 on cultured U937 and Jurkat cells (human, UniProt P61073 1-352)
- Sequence (P61073 whole entry): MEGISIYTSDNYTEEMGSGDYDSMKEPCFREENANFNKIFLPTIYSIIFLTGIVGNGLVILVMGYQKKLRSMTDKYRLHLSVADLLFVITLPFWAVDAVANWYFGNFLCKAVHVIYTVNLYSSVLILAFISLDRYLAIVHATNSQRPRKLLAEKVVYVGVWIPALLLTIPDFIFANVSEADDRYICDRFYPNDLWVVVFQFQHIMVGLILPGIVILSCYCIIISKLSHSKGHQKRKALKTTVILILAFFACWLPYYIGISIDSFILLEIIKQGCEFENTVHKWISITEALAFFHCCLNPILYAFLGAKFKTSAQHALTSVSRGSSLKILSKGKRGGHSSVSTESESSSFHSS
- PROTOCOL_NOTES: cell-based or functional assay
Ends that are not written are not given here.
API: value field is a number in %; no unit string.

Use these answered entries as a reference point.
- LERYHHSVRSTLRPYTK [SEQ ID NO: 74]: 61
- LRRYHHSVRSSLRPYTK-NH2 [SEQ ID NO: 16]: 21
- LRRYHHSVRTSLRPYTK [SEQ ID NO: 70]: 21

Input line: # input binder: MLRRYHHSVRSSLRPYTK [SEQ ID NO: 2] ; wanted: its Percent Inhibition of CXCL12 Mediated Migration (1.1 µM Test Article; Jurkat cells)
Output line: 4

Input line: Please answer likewise for LERYHHSVRSSLRPYTK-NH2 [SEQ ID NO: 56]
Output line: 83

Input line: Please answer likewise for LERFHHSVRSSLRPYTK [SEQ ID NO: 54]
Output line: 54

Input line: Please answer likewise for LERYHHSVRSSLRPYTK [SEQ ID NO: 4]
Output line: 77
